Source listed as ChEMBL document CHEMBL3991601.

Recorded Kd values (Cyclin-dependent kinase 6 (Homo sapiens, UniProt Q00534)) are given below.
Counter-ions that a name gives are not always drawn. Calls of active or inactive are those of the source.

Below are worked cases with known answers.
* C[C@@H](N)c1ccc(C(=O)Nc2ccnc3[nH]ccc23)cc1 [Y-39983] | > 30 µM (inactive)
* COc1cc(Nc2ncc3c(n2)-c2ccc(Cl)cc2C(c2c(F)cccc2OC)=NC3)ccc1C(=O)O [ALISERTIB] | > 30 µM (inactive)
* CCS(=O)(=O)N1CCN(c2ccc(Nc3ncc(C(N)=O)c(NC4CC4)n3)cc2)CC1 [Cerdulatinib Hydrochloride] | > 30 µM (inactive)
* O=C(NOCCO)c1cc(CN2OCCCC2=O)c(F)c(F)c1Nc1ccc(I)cc1F [RO-4987655] | > 30 µM (inactive)
* Cn1cc(C2=C(c3cn(C4CCN(Cc5ccccn5)CC4)c4ccccc34)C(=O)NC2=O)c2ccccc21 [ENZASTAURIN] | > 30 µM (inactive)

Task: Please give measured Kd of the following entry: FC(F)(F)c1ccc(/C=C/c2nc(COc3ccc(CCCCn4ccnn4)cc3)co2)cc1 [MUBRITINIB]
Output: > 30 µM (inactive)

Task: Please give measured Kd of the following entry: COc1cc2c(Nc3ccc(Cl)c(Cl)c3F)ncnc2cc1OC[C@@H]1C[C@@H]2CN(C)C[C@@H]2C1 [TESEVATINIB]
Output: > 30 µM (inactive)

Task: Please give measured Kd of the following entry: CCn1cc(-c2ccnc3[nH]c(-c4cccc(CN(C)C)c4)cc23)c(-c2ccc(NC(=O)N(C)C)cc2)n1 [GSK-1070916]
Output: > 30 µM (inactive)
